- measurementTarget: T1, FCHO1 μHD (purified, not on beads) (human, UniProt O14526 609-889)
- T1 construct: human FCHO1 μ-homology domain (μHD); also called purified FCHO1 μHD; Hs FCHO1 μHD; source: purified
- T1 sequence (looked up): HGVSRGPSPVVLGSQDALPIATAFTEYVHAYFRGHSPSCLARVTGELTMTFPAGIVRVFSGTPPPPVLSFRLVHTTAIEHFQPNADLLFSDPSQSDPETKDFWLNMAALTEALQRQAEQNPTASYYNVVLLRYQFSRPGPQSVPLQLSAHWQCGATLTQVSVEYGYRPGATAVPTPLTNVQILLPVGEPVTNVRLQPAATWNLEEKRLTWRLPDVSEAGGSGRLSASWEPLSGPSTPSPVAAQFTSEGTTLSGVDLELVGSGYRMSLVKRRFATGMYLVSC
- experiment: ITC; repeated injection of EPS15 peptides into a temperature-controlled solution of μHD, Nano ITC instrument (TA Instruments); minimum of four runs
- assayConditions: both partners purified
pKd: −log10 of the molar value.
resultType: pKd

- NLDFFQSDPFVGSDPFKDDPFGK (peptide, UniProt P42566 616-638, looked up) [EPS15 616–638 peptide]: 5.57
